tested on: human blood-plaques; assay: Blood-plaque aggregation inhibition in B.P.R.P. (D.P.A., adrenaline, collagene); details: collagene; X 2 × 10^-5 g/ml vs Dipyridamole 2 × 10^-4 g/ml; head is drawing 16
The entries below are paired with their reported ratio of activities a(X)/a(R), Collagene.
ASSAY READOUT: ratio of activities a(X)/a(R), Collagene

[[record]]
smiles_structure = "CN(C)CCC(=O)c1cc2ccccc2s1"
assay_system = "human blood-plaques"
assay_readout = "ratio of activities a(X)/a(R), Collagene"
assay_result = 1.75

[[record]]
smiles_structure = "O=C(CCN1CCOCC1)c1cc2ccccc2s1"
assay_system = "human blood-plaques"
assay_readout = "ratio of activities a(X)/a(R), Collagene"
assay_result = 1.25

[[record]]
smiles_structure = "O=C(CCN1CCCCCC1)c1cc2ccccc2s1"
assay_system = "human blood-plaques"
assay_readout = "ratio of activities a(X)/a(R), Collagene"
assay_result = 2.5

[[record]]
smiles_structure = "O=C(CCN1CCCCC1)c1cc2ccccc2s1"
assay_system = "human blood-plaques"
assay_readout = "ratio of activities a(X)/a(R), Collagene"
assay_result = 2.2


---

experiment: Acute oral toxicity (LD 50), Miller and Tainter; settings: mouse, in vivo, po; reference product of the aggregation test; source of value not given
ASSAY READOUT: LD50

[[record]]
molecule = "OCCN(CCO)c1nc(N2CCCCC2)c2nc(N(CCO)CCO)nc(N3CCCCC3)c2n1 [Dipyridamole, reference compound]"
assay_readout = "LD50"
assay_result = "2150 mg/kg"


---

test system: human blood-plaques; experiment: Blood-plaque aggregation inhibition in B.P.R.P. (D.P.A., adrenaline, collagene); conditions: adrenaline; X 2.5 × 10^-5 g/ml vs Dipyridamole 5 × 10^-4 g/ml; head is drawing 15
ASSAY READOUT: ratio of activities a(X)/a(R), Adrenaline

[[record]]
smiles_structure = "O=C(CCN1CCCCC1)c1cc2ccccc2s1"
assay_result = 1.1

[[record]]
smiles_structure = "CN(C)CCC(=O)c1cc2ccccc2s1"
assay_result = 1


---

The entries below are paired with their reported a (X): percentage activity, P.P.Q..
system: phenylparaquinone (P.P.Q.) painful syndrome in mouse; assay: Analgesic and anti-inflammatory activity (P.P.Q. painful syndrome); format: in vivo; settings: 50 mg/kg digestively; crises 10 to 15 minutes after P.P.Q.
ASSAY READOUT: a (X): percentage activity, P.P.Q.

[[record]]
smiles_structure = "O=C(CCN1CCCCC1)c1cc2ccccc2s1"
assay_readout = "a (X): percentage activity, P.P.Q."
assay_result = "25%"

[[record]]
smiles_structure = "C=CCN(CC=C)CCC(=O)c1cc2ccccc2s1"
assay_readout = "a (X): percentage activity, P.P.Q."
assay_result = "58%"

[[record]]
smiles_structure = "O=C(CCN1CCOCC1)c1cc2ccccc2s1"
assay_readout = "a (X): percentage activity, P.P.Q."
assay_result = "54%"

[[record]]
smiles_structure = "CN(C)CCC(=O)c1cc2ccccc2s1"
assay_readout = "a (X): percentage activity, P.P.Q."
assay_result = "36%"


---

assay: Acute oral toxicity (LD 50), Miller and Tainter; conditions: mouse, in vivo; mice deprived of food 18 hours, oral (esophageal probe), mortality followed seven days; read-out: LD 50 (50% lethal dose)
The entries below are paired with their reported LD50 at 168 h.
ASSAY READOUT: LD50 at 168 h (mg/kg)

[[record]]
smiles_structure = "O=C(CCN1CCCCCC1)c1cc2ccccc2s1"
result_unit = "mg/kg"
censoring_operator = "="
assay_result = 1200

[[record]]
smiles_structure = "O=C(CCN1CCOCC1)c1cc2ccccc2s1"
result_unit = "mg/kg"
censoring_operator = ">"
assay_result = 1100

[[record]]
smiles_structure = "O=C(CCN1CCCCC1)c1cc2ccccc2s1"
result_unit = "mg/kg"
censoring_operator = ">"
assay_result = 1100

[[record]]
smiles_structure = "CN(C)CCC(=O)c1cc2ccccc2s1"
result_unit = "mg/kg"
censoring_operator = "="
assay_result = 960

[[record]]
smiles_structure = "C=CCN(CC=C)CCC(=O)c1cc2ccccc2s1"
result_unit = "mg/kg"
censoring_operator = "="
assay_result = 1000


Cited source for all entries: patent US4079140A
